Values from PubChem BioAssay (NCI)

Reported TGI values for a set of molecules
tested on: U251 CNS; assay: NCI tumour cell line growth inhibition, 48 h
assay endpoint: TGI

[
  {
    "molecule": "CC(C)N(/C(F)=N\\C(=O)Nc1ccccc1C(F)(F)F)C(C)C",
    "assay endpoint": "TGI",
    "result": "> 100 µM"
  },
  {
    "molecule": "CCCCCCCCCCCCCCNCC(OCC)OCC",
    "assay endpoint": "TGI",
    "result": "30.5 µM"
  },
  {
    "molecule": "NC(=O)SCC(=O)Nc1ccc2ncccc2c1",
    "assay endpoint": "TGI",
    "result": "48.7 µM"
  },
  {
    "molecule": "CCCCN1CCN(c2ccc3nc(-c4ccc5nc(-c6ccc(OCC)c(OCC)c6)[nH]c5c4)[nH]c3c2)CC1",
    "assay endpoint": "TGI",
    "result": "2.69 µM"
  },
  {
    "molecule": "O=c1[nH]c(=O)n2n1C1C=CC2CC1",
    "assay endpoint": "TGI",
    "result": "> 100 µM"
  },
  {
    "molecule": "COc1ccc(N(C(=O)NCCO)c2ccccc2)cc1",
    "assay endpoint": "TGI",
    "result": "> 100 µM"
  },
  {
    "molecule": "COC1=CC(=O)NCCN1",
    "assay endpoint": "TGI",
    "result": "> 100 µM"
  },
  {
    "molecule": "CNC(=O)c1cc2c(Oc3ccc(NC(=S)NC(=O)Cc4ccccc4)cc3F)ccnc2cc1OC",
    "assay endpoint": "TGI",
    "result": "> 100 µM"
  },
  {
    "molecule": "O=C1C2CC=CCC2C(=O)N1n1c(Cc2ccccc2)n[nH]c1=O (stereo unspecified)",
    "assay endpoint": "TGI",
    "result": "> 100 µM"
  },
  {
    "molecule": "Cc1cc(=O)c2ccccc2n1CCCCCCCCCCn1c(C)cc(=O)c2ccccc21",
    "assay endpoint": "TGI",
    "result": "29 µM"
  },
  {
    "molecule": "CN=C(NC)N(C)c1nc(=[N+](C)C)ss1",
    "assay endpoint": "TGI",
    "result": "> 100 µM"
  },
  {
    "molecule": "Cc1ccc(C(=O)N=Nc2c(O)[nH]c3ccc(Cl)cc23)cc1",
    "assay endpoint": "TGI",
    "result": "> 50 µM"
  },
  {
    "molecule": "Cc1ccc(S(=O)(=O)N2CCCSCCN(S(=O)(=O)c3ccc(C)cc3)CCCSCC2)cc1",
    "assay endpoint": "TGI",
    "result": "> 100 µM"
  },
  {
    "molecule": "CCN(CC)CC(=O)Nc1ccc2c(c1)C(=O)c1ccc(NC(=O)CN(CC)CC)cc1C2=O",
    "assay endpoint": "TGI",
    "result": "47 µM"
  },
  {
    "molecule": "CC12CCC(O)CC1=CCC1C2CCC2(C)C(c3cccnc3)=CCC12 (stereo unspecified)",
    "assay endpoint": "TGI",
    "result": "> 100 µM"
  },
  {
    "molecule": "O=C(COc1ccc(-c2nc3cc(Cl)c(Cl)cc3[nH]2)cc1)N=Nc1c(O)[nH]c2ccccc12",
    "assay endpoint": "TGI",
    "result": "2.1 µM"
  }
]

###

Reported GI50 values for a set of molecules
tested on: SF-295 CNS; experiment: NCI tumour cell line growth inhibition, 48 h

[
  {
    "molecule smiles": "Clc1ccc(N2CCC(N3CCCC3)CC2)cc1-c1nc2ccccc2[nH]1",
    "GI50": "17.4 µM"
  },
  {
    "molecule smiles": "O=S(=O)(NCCO)c1cc[c]([Sb](=[O])([OH])[OH])cc1",
    "GI50": "> 100 µM"
  },
  {
    "molecule smiles": "COc1ccc(/C(=N/O)c2cc(OC)c(OC)c(OC)c2)c(OC)c1N",
    "GI50": "3.02 µM"
  },
  {
    "molecule smiles": "C[C@]12CC[C@@H]3c4ccc(O)cc4CC[C@H]3[C@@H]1CC[C@@H]2NS(=O)(=O)c1ccc2ccccc2c1",
    "GI50": "2.25 µM"
  },
  {
    "molecule smiles": "Cc1ncc(-c2ccnc(Nc3ccc(S(C)(=O)=O)cc3)n2)n1C(C)C",
    "GI50": "1.67 µM"
  }
]

###

tested on: TK-10 renal; assay: NCI tumour cell line growth inhibition, 48 h; in the data active means GI50 below about 0.43 µM; inactive means the rest
Outcome codes: active, inactive

[
  {
    "compound": "Oc1c(CNCCNCc2cc(Cl)cc(Cc3ccccc3)c2O)cc(Cl)cc1Cc1ccccc1",
    "system tested": "TK-10 renal",
    "assigned category": "active"
  },
  {
    "compound": "Cc1cc(O)cc(C)c1/C=C/c1cncc(C(=O)OC(C)(C)C)c1",
    "system tested": "TK-10 renal",
    "assigned category": "inactive"
  },
  {
    "compound": "Cn1c2ccccc2c2nnc(NNCc3ccccn3)nc21",
    "system tested": "TK-10 renal",
    "assigned category": "inactive"
  },
  {
    "compound": "CCCCN1CCN(c2ccc3nc(-c4ccc5nc(-c6ccc(OCC)c(OCC)c6)[nH]c5c4)[nH]c3c2)CC1",
    "system tested": "TK-10 renal",
    "assigned category": "inactive"
  },
  {
    "compound": "COc1ccc(C#CC2=C(c3cc(OC)c(OC)c(OC)c3)C(=O)OC2)cc1",
    "system tested": "TK-10 renal",
    "assigned category": "inactive"
  },
  {
    "compound": "CN(C)CCOc1ccc(-c2cc(-c3ccc4c(c3)CC/C4=N\\O)c(-c3ccncc3)o2)cc1",
    "system tested": "TK-10 renal",
    "assigned category": "inactive"
  },
  {
    "compound": "CCN1C(=O)N(CC)C2C1NN=c1s/c(=C\\c3cccc([N+](=O)[O-])c3)c(=O)n12 (stereo not given)",
    "system tested": "TK-10 renal",
    "assigned category": "inactive"
  },
  {
    "compound": "CCOC(=O)c1nc2cc(C(F)(F)F)ccc2[n+]([O-])c1C",
    "system tested": "TK-10 renal",
    "assigned category": "inactive"
  },
  {
    "compound": "CCc1c(C)c2ccc(OCC(=O)N=Nc3c(O)[nH]c4ccccc34)c(C)c2oc1=O",
    "system tested": "TK-10 renal",
    "assigned category": "inactive"
  },
  {
    "compound": "COc1ccc2nccc(/C=C/c3ccnc4ccc(OC)cc34)c2c1",
    "system tested": "TK-10 renal",
    "assigned category": "inactive"
  },
  {
    "compound": "CC(OC(=O)N(N(CCCl)S(C)(=O)=O)S(C)(=O)=O)c1ccc([N+](=O)[O-])cc1 (stereo not given)",
    "system tested": "TK-10 renal",
    "assigned category": "inactive"
  },
  {
    "compound": "CN(C)c1ccc(C(=C2C=CC(=[N+](C)C)C=C2)c2ccccc2Cl)cc1",
    "system tested": "TK-10 renal",
    "assigned category": "active"
  },
  {
    "compound": "CC12CCC(O)CC1=CCC1C2CCC2(C)C(c3cccnc3)=CCC12 (stereo not given)",
    "system tested": "TK-10 renal",
    "assigned category": "inactive"
  },
  {
    "compound": "O=C(COc1ccc(-c2nc3cc(Cl)c(Cl)cc3[nH]2)cc1)N=Nc1c(O)[nH]c2ccccc12",
    "system tested": "TK-10 renal",
    "assigned category": "inactive"
  },
  {
    "compound": "Oc1ccccc1C=Nc1ccccc1N=Cc1ccccc1O.[Cu+2]",
    "system tested": "TK-10 renal",
    "assigned category": "inactive"
  },
  {
    "compound": "COC(=O)[C@@H](OC)[C@@H]1Cc2cc3cc(OC4CC(OC5CC(O)C(O)C(C)O5)C(O)C(C)O4)c(C)c(O)c3c(O)c2C(=O)[C@H]1OC1CC(OC2CC(OC3CC(C)(O)C(O)C(C)O3)C(O)C(C)O2)C(O)C(C)O1 (stereo not given in full)",
    "system tested": "TK-10 renal",
    "assigned category": "active"
  },
  {
    "compound": "CNCCCn1c2c(c3ccc(F)cc3c1=O)C(=O)c1cc(OC)cnc1-2",
    "system tested": "TK-10 renal",
    "assigned category": "active"
  },
  {
    "compound": "COc1ccc(/C(=N/O)c2cc(OC)c(OC)c(OC)c2)c(OC)c1N",
    "system tested": "TK-10 renal",
    "assigned category": "inactive"
  },
  {
    "compound": "CCN(CC)c1ccc(/C=C/C=C(/C#N)C(N)=S)cc1",
    "system tested": "TK-10 renal",
    "assigned category": "inactive"
  },
  {
    "compound": "Clc1ccc(N2CCC(N3CCCC3)CC2)cc1-c1nc2ccccc2[nH]1",
    "system tested": "TK-10 renal",
    "assigned category": "inactive"
  }
]
